The reported measurements were obtained from patent US6545002B1.

List of Ki values.
- test-target: rat A1 receptors (rA1) (Rattus norvegicus, UniProt P25099)
- Construct: to A1 receptors from rat cerebral cortical membranes; from tissue; host or cells: rat cerebral cortical (brain) membranes
- Sequence (P25099 1-326): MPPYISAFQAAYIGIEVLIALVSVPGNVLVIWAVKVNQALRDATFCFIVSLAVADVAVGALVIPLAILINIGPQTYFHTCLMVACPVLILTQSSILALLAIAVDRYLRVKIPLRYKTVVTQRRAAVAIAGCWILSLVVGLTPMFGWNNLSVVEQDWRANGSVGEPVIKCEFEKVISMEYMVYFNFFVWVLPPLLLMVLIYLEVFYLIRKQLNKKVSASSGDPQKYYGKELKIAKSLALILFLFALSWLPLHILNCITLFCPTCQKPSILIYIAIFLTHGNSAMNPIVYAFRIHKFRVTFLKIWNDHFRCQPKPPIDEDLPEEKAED
- procedure-summary: Displacement of [3H]R-PIA binding in rat brain (cerebral cortical) membranes
- test-settings: Table 2; read-out: rA1 Ki or IC50
Give the value in µM but do not write µM after it.

These solved cases illustrate the format of a correct answer.
[[record]]
record_smiles = "CCCn1c(=O)c2[nH]c(-c3ccc(OCC(=O)Nc4ccc(C(=O)NC)cc4)cc3)nc2n(CCC)c1=O"
recorded_number = 0.0248

[[record]]
record_smiles = "CCCn1c(=O)c2[nH]c(-c3ccc(OCC(=O)NC(c4ccccc4)c4ccccc4)cc3)nc2n(CCC)c1=O"
recorded_number = 0.12

[[record]]
record_smiles = "CCCn1c(=O)c2[nH]c(-c3ccc(OCC(=O)Nc4ccc(O)cc4)cc3)nc2n(CCC)c1=O"
recorded_number = 0.00588

[[record]]
record_smiles = "CCCn1c(=O)c2[nH]c(-c3ccc(OCC(=O)N(C)c4ccccc4)cc3)nc2n(CCC)c1=O"
recorded_number = 0.218

[[record]]
record_smiles = "CCCn1c(=O)c2[nH]c(-c3ccc(OCC(=O)Nc4ccc(C(F)(F)F)cc4)cc3)nc2n(CCC)c1=O"
recorded_number = 0.0446

[[record]]
record_smiles = "CCCn1c(=O)c2[nH]c(-c3ccc(OCC(=O)Nc4ccc(F)cc4)cc3)nc2n(CCC)c1=O"
recorded_number = 0.00272

[[record]]
record_smiles = "CCCn1c(=O)c2[nH]c(-c3ccc(OCC(=O)Nc4ccccc4C(C)=O)cc3)nc2n(CCC)c1=O"
recorded_number = 0.0279

[[record]]
record_smiles = "CCCn1c(=O)c2[nH]c(-c3ccc(OCC(=O)Nc4ccc(C(N)=O)cc4)cc3)nc2n(CCC)c1=O"
recorded_number = 0.0102

[[record]]
record_smiles = "CCCn1c(=O)c2[nH]c(-c3ccc(OCC(=O)Nc4ccc(C)cc4)cc3)nc2n(CCC)c1=O"
recorded_number = 0.0175

[[record]]
record_smiles = "CCCn1c(=O)c2[nH]c(-c3ccc(OCC(=O)Nc4ccc(C(C)=O)cc4)cc3)nc2n(CCC)c1=O"
recorded_number = 0.0376


Prompt line: Ki for CCCn1c(=O)c2[nH]c(-c3ccc(OCC(=O)Nc4ccc(Cl)cc4)cc3)nc2n(CCC)c1=O ?
Response line: 0.00635
